test system: SNB-75; test: Cytotoxicity (GI50) assay, SNB-75; assay type: cell-based, human; settings: SNB-75; human glioblastoma cell line; read-out: Cancer cell lines GI50, SNB-75
Listing of recorded GI50 by entry.
measured-endpoint: GI50 (nM)

molecule	measured-endpoint	reading-unit	experimental-value
CSc1nc(/C=C(\C)[C@@H]2C[C@@H]3N(CCN=[N+]=[N-])[C@]3(C)CCC[C@H](C)[C@H](O)[C@@H](C)C(=O)C(C)(C)[C@@H](O)CC(=O)O2)cs1 (stereo partly drawn) [compound 34]	GI50	nM	22
C/C(=C\c1nc2ccccc2s1)[C@@H]1C[C@@H]2N(CCO)[C@]2(C)CCC[C@H](C)[C@H](O)[C@@H](C)C(=O)C(C)(C)[C@@H](O)CC(=O)O1 (stereo partly drawn) [compound 24]	GI50	nM	12
CC(=O)[C@@H]1C[C@@H]2N(CCO)[C@]2(C)CCC[C@H](C)[C@H](O)[C@@H](C)C(=O)C(C)(C)[C@@H](O)CC(=O)O1 (stereo partly drawn) [compound 81]	GI50	nM	360

====

Listing of recorded GI50 by entry.
tested on: NCI/ADR-RES; experiment: Cytotoxicity (GI50) assay, NCI/ADR-RES; format: cell-based, human; details: Homo sapiens, NCI/ADR-RES, read-out: Cancer cell lines GI50, NCI/ADR-RES

compound	reading-unit	GI50
CSc1cc(/C=C(\C)[C@@H]2C/C=C(/C)CCC[C@H](C)[C@H](O)[C@@H](C)C(=O)C(C)(C)[C@@H](O)CC(=O)O2)nn1C [compound 73]	nM	52
CSc1nc(/C=C(\C)[C@@H]2C[C@@H]3N(CCS)[C@]3(C)CCC[C@H](C)[C@H](O)[C@@H](C)C(=O)C(C)(C)[C@@H](O)CC(=O)O2)cs1 (stereo partly drawn) [compound 35]	nM	30
CSc1cc(/C=C(\C)[C@@H]2C[C@@H]3N[C@]3(C)CCC[C@H](C)[C@H](O)[C@@H](C)C(=O)C(C)(C)[C@@H](O)CC(=O)O2)nn1C [compound 40]	nM	140

====

test system: NCI/ADR-RES; assay: Cytotoxicity (GI50) assay, NCI/ADR-RES; assay type: cell-based, human; conditions: Homo sapiens, NCI/ADR-RES, read-out: Cancer cell lines GI50, NCI/ADR-RES
Listing of recorded GI50 by entry.

compound	value-relation-sign	GI50 / nM
C/C(=C\c1snnc1C)[C@@H]1C[C@@H]2N(CCO)[C@]2(C)CCC[C@H](C)[C@H](O)[C@@H](C)C(=O)C(C)(C)[C@@H](O)CC(=O)O1 (stereo partly drawn)	=	2800
C/C(=C\c1cnsn1)[C@@H]1C[C@@H]2N(CCO)[C@]2(C)CCC[C@H](C)[C@H](O)[C@@H](C)C(=O)C(C)(C)[C@@H](O)CC(=O)O1 (stereo partly drawn)	=	680
CC(=O)[C@@H]1C[C@@H]2N[C@]2(C)CCC[C@H](C)[C@H](O)[C@@H](C)C(=O)C(C)(C)[C@@H](O)CC(=O)O1	>	5000

====

tested on: SNB-75; assay: Cytotoxicity (GI50) assay, SNB-75; format: cell-based, human; conditions: SNB-75; human glioblastoma cell line; read-out: Cancer cell lines GI50, SNB-75

compound	GI50, µM
C/C(=C\c1csc(CN)n1)[C@@H]1C[C@@H]2N(CCO)[C@]2(C)CCC[C@H](C)[C@H](O)[C@@H](C)C(=O)C(C)(C)[C@@H](O)CC(=O)O1 (some centres unmarked)	0.13
C/C(=C\c1csc(CCN)n1)[C@@H]1C[C@@H]2N(CCO)[C@]2(C)CCC[C@H](C)[C@H](O)[C@@H](C)C(=O)C(C)(C)[C@@H](O)CC(=O)O1 (some centres unmarked)	0.05
CSc1nc(/C=C(\C)[C@@H]2C[C@@H]3N(CC4CC4)[C@]3(C)CCC[C@H](C)[C@H](O)[C@@H](C)C(=O)C(C)(C)[C@@H](O)CC(=O)O2)cs1 (some centres unmarked)	0.016
CSc1nc(/C=C(\C)[C@@H]2C[C@@H]3N(CCN)[C@]3(C)CCC[C@H](C)[C@H](O)[C@@H](C)C(=O)C(C)(C)[C@@H](O)CC(=O)O2)cs1 (some centres unmarked)	0.023
CC(=O)O[C@H]1C(=O)[C@@]2(C)[C@H]([C@H](OC(=O)c3ccccc3)[C@]3(O)C[C@H](OC(=O)[C@H](O)[C@@H](NC(=O)c4ccccc4)c4ccccc4)C(C)=C1C3(C)C)[C@]1(OC(C)=O)CO[C@@H]1C[C@@H]2O [paclitaxel, reference compound]	0.015
CSc1cc(/C=C(\C)[C@@H]2C[C@@H]3N(CCO)[C@]3(C)CCC[C@H](C)[C@H](O)[C@@H](C)C(=O)C(C)(C)[C@@H](O)CC(=O)O2)nn1C (some centres unmarked)	0.01
CSc1nc(/C=C(\C)[C@@H]2C[C@@H]3N(CCO)[C@]3(C)CCC[C@H](C)[C@H](O)[C@@H](C)C(=O)C(C)(C)[C@@H](O)CC(=O)O2)cs1 (some centres unmarked)	0.06
C/C(=C\c1csc(N)n1)[C@@H]1C[C@@H]2N(CCO)[C@]2(C)CCC[C@H](C)[C@H](O)[C@@H](C)C(=O)C(C)(C)[C@@H](O)CC(=O)O1 (some centres unmarked)	0.28
CC(=Cc1csc(C)n1)C1CC2OC2CCCC(C)C(O)C(C)C(=O)C(C)(C)C(O)CC(=O)O1 (centres unmarked)	0.026
CSc1nc(/C=C(\C)[C@@H]2C[C@@H]3N[C@]3(C)CCC[C@H](C)[C@H](O)[C@@H](C)C(=O)C(C)(C)[C@@H](O)CC(=O)O2)cs1	0.011
C/C(=C\c1ccccn1)[C@@H]1C[C@@H]2N(CCO)[C@]2(C)CCC[C@H](C)[C@H](O)[C@@H](C)C(=O)C(C)(C)[C@@H](O)CC(=O)O1 (some centres unmarked)	0.098
